Every entry's value here was drawn from PubChem BioAssay AID1897.

- System under test: Mitogen-activated protein kinase kinase kinase 2 (Homo sapiens) + Dual specificity mitogen-activated protein kinase kinase 5 (Homo sapiens) (UniProt Q9Y2U5+Q13163)
- Sequence (Q13163 whole entry, looked up): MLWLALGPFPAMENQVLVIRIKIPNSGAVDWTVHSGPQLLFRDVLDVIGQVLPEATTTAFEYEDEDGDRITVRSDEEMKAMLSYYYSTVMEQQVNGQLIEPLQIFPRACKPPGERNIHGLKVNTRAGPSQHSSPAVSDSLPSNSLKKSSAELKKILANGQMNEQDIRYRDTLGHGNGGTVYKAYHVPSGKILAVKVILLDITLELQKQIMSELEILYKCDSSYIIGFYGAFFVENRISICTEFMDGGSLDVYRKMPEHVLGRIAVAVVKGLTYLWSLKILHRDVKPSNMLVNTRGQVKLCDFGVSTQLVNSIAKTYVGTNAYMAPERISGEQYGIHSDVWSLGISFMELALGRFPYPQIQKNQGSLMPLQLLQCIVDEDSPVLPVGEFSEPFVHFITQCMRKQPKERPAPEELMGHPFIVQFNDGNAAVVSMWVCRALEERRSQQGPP
- Sequence (Q9Y2U5 whole entry, looked up): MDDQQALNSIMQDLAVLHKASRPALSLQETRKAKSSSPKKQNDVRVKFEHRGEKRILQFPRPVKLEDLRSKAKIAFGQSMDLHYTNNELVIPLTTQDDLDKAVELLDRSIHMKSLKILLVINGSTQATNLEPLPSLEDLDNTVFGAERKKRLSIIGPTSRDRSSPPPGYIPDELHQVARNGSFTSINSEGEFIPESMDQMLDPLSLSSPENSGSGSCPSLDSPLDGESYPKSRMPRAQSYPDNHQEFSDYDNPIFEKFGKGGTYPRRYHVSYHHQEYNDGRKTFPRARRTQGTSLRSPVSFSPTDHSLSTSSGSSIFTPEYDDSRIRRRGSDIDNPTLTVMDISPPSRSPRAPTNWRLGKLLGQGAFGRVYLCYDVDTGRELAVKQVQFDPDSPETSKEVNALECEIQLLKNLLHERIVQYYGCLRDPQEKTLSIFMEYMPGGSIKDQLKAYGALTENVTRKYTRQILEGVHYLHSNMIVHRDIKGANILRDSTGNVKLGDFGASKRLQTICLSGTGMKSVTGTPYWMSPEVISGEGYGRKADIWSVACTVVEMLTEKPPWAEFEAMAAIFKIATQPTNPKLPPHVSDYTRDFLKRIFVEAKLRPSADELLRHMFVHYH
- Assay remarks: inhibitors of MEK5 binding to MEKK2, dose response, biochemical, bead multiplex flow cytometry, wildtype (AID 1897)
- Condition details: MEK5-MEKK2 PB1 binding
The source made the active and inactive calls. The rule behind the calls is not given here.
Value kind: EC50

- Molecule: "CCOC(=O)c1c(C)n(-c2ccc(C)cc2)c2ccc(OCC(O)CN3CCN(C)CC3)cc12 (stereo not drawn)"
  Value kind: "EC50"
  Endpoint value: "> 30 µM (inactive)"
- Molecule: "CC(C)n1cc(CN2CCC(C(=O)Nc3cccc(-c4cccc(Cl)c4)c3)CC2)cn1"
  Value kind: "EC50"
  Endpoint value: "> 30 µM (inactive)"
- Molecule: "CC[n+]1c(/C=C/C=C/N(C(C)=O)c2ccccc2)sc2ccccc21"
  Value kind: "EC50"
  Endpoint value: "> 30 µM (inactive)"

====

- System under test: Mitogen-activated protein kinase kinase kinase 2 (Homo sapiens) + Dual specificity mitogen-activated protein kinase kinase 5 (Homo sapiens) (UniProt Q9Y2U5+Q13163)
- Assay remarks: inhibitors of MEK5 binding to MEKK2, dose response, biochemical, bead multiplex flow cytometry, wildtype (AID 1897)
- Condition details: MEK5-MEKK2 PB1 binding
The source made the active and inactive calls. The rule behind the calls is not given here.
Classes used: active, inactive

- Compound: "Cc1sc(NC(=O)c2ccccc2)c(C(c2ccccn2)N2CCN(CCO)CC2)c1C (stereo not given)"
  Answer label: "inactive"
- Compound: "O=C1c2ccccc2-c2onc3ccc(NCCCn4ccnc4)c1c23"
  Answer label: "inactive"
- Compound: "Brc1ccc(N=C/C=C/C=C/Nc2ccc(Br)cc2)cc1"
  Answer label: "inactive"
- Compound: "Cc1cc2ccccc2n1CCNC(=O)c1ccc(Br)o1"
  Answer label: "active"
- Compound: "CN(c1ccccc1)c1ccc(/C=c2\\s/c(=C(/C#N)C(=O)C(C)(C)C)n(Cc3ccco3)c2=O)cc1"
  Answer label: "active"
- Compound: "Nc1cc2nc[nH]c2cc1N"
  Answer label: "active"
- Compound: "CCCCCCCCCCOC(=O)Cn1c(COc2cccc(C)c2)[n+](C)c2ccccc21"
  Answer label: "inactive"
- Compound: "c1ccc(CNc2nc(NCc3ccccc3)c3ccccc3n2)cc1"
  Answer label: "inactive"
- Compound: "Cc1cc(N=Nc2ccc(C)c(N=Nc3cc(C)c(N)cc3N)c2)c(N)cc1N"
  Answer label: "inactive"
- Compound: "COc1cccc(OC)c1-c1nn2c(-c3cc(-c4ccccc4)n[nH]3)nnc2s1"
  Answer label: "active"
- Compound: "COc1ccc(-c2csc(N(CCCN(C)C)C(=O)c3ccccc3Cl)n2)cc1"
  Answer label: "inactive"
- Compound: "CSc1cccc(NC(=S)N(CCCN2CCCC2)Cc2cccn2Cc2ccc(Cl)cc2)c1"
  Answer label: "active"
- Compound: "CCN1CCN(Cc2ccc(NC(=O)c3ccc(C)c(NC(=O)C(=O)c4c[nH]c5ccccc45)c3)cc2C(F)(F)F)CC1"
  Answer label: "inactive"
- Compound: "CCOC(=O)C(C(=O)OCC)c1cc(Br)c2noc3c2c1C(=O)c1ccccc1-3"
  Answer label: "active"
- Compound: "CCCCCCCCCCOC(=O)Cn1c(COc2ccccc2OC)[n+](C)c2ccccc21"
  Answer label: "active"
- Compound: "CCN1/C(=C/c2ccc3cc(C)cc(C)c3[n+]2CC)Sc2cc(C)ccc21"
  Answer label: "active"
- Compound: "CCN(CC)CCOC(=O)c1ccc(N/C=C(/C#N)c2nc(-c3ccc(OC)c(OC)c3)cs2)cc1"
  Answer label: "inactive"
- Compound: "Cc1ccc(CN2CCSc3ccc(C(=O)NC4CCN(Cc5ccccc5)CC4)cc32)cc1"
  Answer label: "active"
- Compound: "O=C(c1cc(COc2c(F)cccc2F)on1)N1C[C@H]2CC[C@H]1C2"
  Answer label: "inactive"
- Compound: "C#CCOCCOCCOCCNc1nc(N2CCN(C(=O)C(Cc3ccc(O)cc3)n3cc(C(N)CC(C)C)nn3)CC2)nc(N2CCN(C(=O)C(Cc3cc4ccccc4[nH]3)n3cc(C(N)Cc4ccc(O)cc4)nn3)CC2)n1 (stereo not given)"
  Answer label: "active"
- Compound: "COc1ccc2[nH]c3c(C)c4ccncc4c(C)c3c2c1"
  Answer label: "inactive"
- Compound: "COc1ccc(-c2[nH]ncc2CN2CCCCCCC2)c(OC)c1"
  Answer label: "inactive"
- Compound: "C#CCOCCOCCOCCNc1nc(N2CCN(C(=O)[C@H](Cc3cc4ccccc4[nH]3)n3cc([C@@H](N)C(C)CC)nn3)CC2)nc(N2CCN(C(=O)[C@H](Cc3cc4ccccc4[nH]3)n3cc([C@@H](N)Cc4ccc(O)cc4)nn3)CC2)n1 (stereo not given in full)"
  Answer label: "active"
- Compound: "CCN1CCN(Cc2ccc(NC(=O)c3cc(NC(=O)c4cncc(-c5cccs5)c4)cc(OC)c3)cc2C(F)(F)F)CC1"
  Answer label: "inactive"
- Compound: "Cc1nc(Nc2cnc(/C=C/c3cc(C(=O)Nc4cccc(C(F)(F)F)c4)ccc3C)cn2)cc(N2CCNCC2)n1"
  Answer label: "inactive"

====

- System under test: Mitogen-activated protein kinase kinase kinase 2 (Homo sapiens) + Dual specificity mitogen-activated protein kinase kinase 5 (Homo sapiens) (UniProt Q9Y2U5+Q13163)
- Assay remarks: inhibitors of MEK5 binding to MEKK2, dose response, biochemical, bead multiplex flow cytometry, wildtype (AID 1897)
- Condition details: MEK5-MEKK2 PB1 binding
Activity calls are given as the source filed them. How the calls were made is not given here.
Classes used: y for active, n for inactive

- Compound: "COc1ccc(Cn2cc3c(-c4ccc(F)cc4)nnc-3c3cc(OC)c(OC)cc32)cc1"
  Answer label: "y"
- Compound: "CCC(=C/c1sc2ccc3ccccc3c2[n+]1C)/C=C1\\Sc2ccc3ccccc3c2N1C"
  Answer label: "y"
- Compound: "O=[N+]([O-])c1ccc(/C=C/C2=NN(c3ccccc3)C(c3ccco3)C2)o1 (stereo not given)"
  Answer label: "n"
- Compound: "CCC(/C=C1\\Sc2ccc(OC)cc2N1CCO)=C\\c1sc2ccc(OC)cc2[n+]1CCO"
  Answer label: "y"
- Compound: "COc1ccc(CSc2n[nH]c(C)n2)cc1[N+](=O)[O-]"
  Answer label: "n"
- Compound: "CCN1/C(=C/C=C/C=C/C=C/c2sc3ccccc3[n+]2CC)Sc2ccccc21"
  Answer label: "n"
- Compound: "COc1cc(CNCCc2c[nH]c3ccccc23)ccc1OCc1ccccc1F"
  Answer label: "n"
- Compound: "C=CCN1C(=O)/C(=C/c2ccc(-c3ccc(F)cc3)o2)SC1=S"
  Answer label: "y"
- Compound: "COc1ccc(Cn2c(SCc3ccccc3C)nc3cc(OC)c(OC)cc3c2=N)cc1"
  Answer label: "n"
- Compound: "CCCCCCCCCCOC(=O)Cn1c(COc2ccc(C)cc2)[n+](C)c2ccccc21"
  Answer label: "y"
- Compound: "CCN1CCN(CCNC(=O)c2ccc(/C=C3/Sc4ccccc4N(Cc4cccc(C)c4)C3=O)cc2)CC1"
  Answer label: "y"
- Compound: "CCCCCCCCCCCCCCCC[n+]1cccc2ccccc21"
  Answer label: "n"
- Compound: "COc1ccccc1N(CN1C(=O)c2ccccc2C1=O)C(=O)c1cccc(C)c1"
  Answer label: "n"
- Compound: "Cc1nn2c(N)csc2nc1=O"
  Answer label: "y"
- Compound: "CCCCCCCCCC[N+](C)(C)CC/C=C1/c2ccccc2Sc2ccc(Cl)cc21"
  Answer label: "y"
- Compound: "Cc1cc2cc(CNC(=O)NC3CCCCC3)ccc2[nH]1"
  Answer label: "y"
- Compound: "CCN(CC)CCOC(=O)c1ccc(N/C=C(/C#N)c2nc(-c3ccc4c(c3)OCO4)cs2)cc1"
  Answer label: "n"
- Compound: "CCN(CC)CCOc1ccc2c(c1)C(=NNC(=O)c1ccccn1)c1cc(OCCN(CC)CC)ccc1-2"
  Answer label: "y"
- Compound: "CCCCCc1cc(=O)oc2c(C(CCN3CCCCC3)c3ccc(OC)cc3)c(OC)cc(OC)c12 (stereo not given)"
  Answer label: "n"
- Compound: "Cc1nc(N)sc1-c1csc(Nc2ncccn2)n1"
  Answer label: "n"
- Compound: "COc1ccccc1N1CCN(S(=O)(=O)c2ccc(Cl)s2)CC1"
  Answer label: "n"
- Compound: "CC[C@@H](C)[C@H](CNC)NC[C@@H](Cc1cccc2ccccc12)NCCc1cccc(C(F)(F)F)c1"
  Answer label: "y"
- Compound: "COc1ccc(C(CCNCc2ccc(OC(C)C)cc2)c2ccccc2OC)cc1 (stereo not given)"
  Answer label: "n"
- Compound: "CCOC(=O)c1c(CSC(=N)N)n(-c2ccc(C)cc2)c2cc(Br)c(OC(C)=O)cc12"
  Answer label: "y"
- Compound: "CN(C)CCCn1c(SCC(=O)Nc2nc(-c3cccc(Br)c3)cs2)nc2ccccc2c1=O"
  Answer label: "n"
